- TEST SYSTEM: quisqualate type receptors
- ASSAY DETAILS: 3H-AMPA binding (Test 1)
- MEASUREMENT SETUP: rat cerebral cortical membrane homogenate; 5 nM 3H-AMPA; 0° C., 30 min, pH 7.1
ASSAY READOUT: Test 1 IC50 (displacement of 50% of the specific binding of 3H-AMPA)

Problem: Field: Test 1 IC50 (displacement of 50% of the specific binding of 3H-AMPA) (quisqualate type receptors). Entry: `O=[N+]([O-])c1cc2nc(O)c(O)nc2c2nccnc12`
Result: 0,39 μg/ml

* * *

- TEST SYSTEM: quisqualate type receptors
- ASSAY DETAILS: 3H-AMPA binding (Test 1)
- MEASUREMENT SETUP: rat cerebral cortical membrane homogenate; 5 nM 3H-AMPA; 0° C., 30 min, pH 7.1
Known Test 1 IC50 (displacement of 50% of the specific binding of 3H-AMPA) of a selection of compounds

Reference set (2 entries):
SMILES	TEST SYSTEM	RECORDED VALUE
Cn1nc2c([N+](=O)[O-])cc3nc(O)c(O)nc3c2n1	quisqualate type receptors	0,36 μg/ml
O=[N+]([O-])c1cc2nc(O)c(O)nc2c2scnc12	quisqualate type receptors	0,21 μg/ml

Now examine the next entry.
Problem: Look up Test 1 IC50 (displacement of 50% of the specific binding of 3H-AMPA) for this compound: `O=[N+]([O-])c1cc2nc(O)c(O)nc2c2nonc12`
Result: 0,23 μg/ml
